- Tested on: P388 leukemia ip, CD2F1 mice, survival T/C
- Measurement Notes: NCI In Vivo Anticancer Drug Screen. Data for tumor model P388 Leukemia (intraperitoneal) in CD2F1 (CDF1) mice
- Applied Conditions: endpoint: median survival time; dose: 60.0 mg/kg/injection; schedule: Q01DX005 (ip); vehicle: saline with Tween-80; higher = longer survival
Toxic doses and inconclusive results are not listed.
Measured Attribute: T/C

The examples below pair each entry with its known result.
- Molecule: "CC(C)C12CN1C2(c1ccccc1)c1ccccc1 (centres undefined)"
  T/C: "100 % of control"
- Molecule: "CN(C)c1nc(-c2ccccc2)c(Cc2ccccc2)c(=O)o1"
  T/C: "99 % of control"
- Molecule: "CN(CCOC(N)=O)CCOC(N)=O"
  T/C: "92 % of control"

Indicate the recorded T/C value for this molecule: CC(=O)O/C(C)=C1\CCn2c1nc1ccccc1c2=O
104 % of control

====

- Tested on: P388 leukemia ip, CD2F1 mice, survival T/C
- Measurement Notes: NCI In Vivo Anticancer Drug Screen. Data for tumor model P388 Leukemia (intraperitoneal) in CD2F1 (CDF1) mice
- Applied Conditions: endpoint: median survival time; dose: 25.0 mg/kg/injection; schedule: Q01DX009 (ip); vehicle: saline; higher = longer survival
Toxic doses and inconclusive results are not listed.
Quick list: T/C per entry.

Examples from the recorded data:
- Molecule: "O=C1CP(=O)(O)CC2=C1CCC2"
  Target Entity: "P388 leukemia ip, CD2F1 mice, survival T/C"
  T/C: "96 % of control"
- Molecule: "CNC(C#N)C(O)c1ccccc1 (centres undefined)"
  Target Entity: "P388 leukemia ip, CD2F1 mice, survival T/C"
  T/C: "92 % of control"
- Molecule: "O=C(C[n+]1ccccc1)N/N=C/c1ccc([N+](=O)[O-])s1"
  Target Entity: "P388 leukemia ip, CD2F1 mice, survival T/C"
  T/C: "100 % of control"

Now look at this one.
Provide measured T/C value, entry: NC1CC1N (centres undefined)
100 % of control

====

- Tested on: P388 leukemia ip, CD2F1 mice, survival T/C
- Measurement Notes: NCI In Vivo Anticancer Drug Screen. Data for tumor model P388 Leukemia (intraperitoneal) in CD2F1 (CDF1) mice
- Applied Conditions: endpoint: median survival time; dose: 6.25 mg/kg/injection; schedule: Q01DX009 (ip); vehicle: saline with Tween-80; higher = longer survival
Toxic doses and inconclusive results are not listed.
Reported T/C by item:

Sample records with T/C:
- Compound: "CCCCCCCC[N+](C)(C)CCSCC[N+](C)(C)CCCCCCCC"
  Target Entity: "P388 leukemia ip, CD2F1 mice, survival T/C"
  Reading: "96 % of control"
- Compound: "O=C(O)C1CC1.[Ag]"
  Target Entity: "P388 leukemia ip, CD2F1 mice, survival T/C"
  Reading: "97 % of control"

Please report T/C for the following compound: O=C(Oc1ccccc1OC(=O)c1ccccc1)c1ccccc1
108 % of control

Return value of T/C for input [I][Hg][CH2]C1COCC([CH2][Hg][I])O1.[I][Hg][CH2]C1COCC([CH2][Hg][I])O1 (stereo not given) , no commentary.
113 % of control

Give T/C for O=c1[nH]cnc2nn(C3OC(CO)C(O)C3O)cc12 (stereo not given)
93 % of control

====

- Tested on: P388 leukemia ip, CD2F1 mice, survival T/C
- Measurement Notes: NCI In Vivo Anticancer Drug Screen. Data for tumor model P388 Leukemia (intraperitoneal) in CD2F1 (CDF1) mice
- Applied Conditions: endpoint: median survival time; dose: 25.0 mg/kg/injection; schedule: Q01DX005 (ip); vehicle: saline with Tween-80; higher = longer survival
Toxic doses and inconclusive results are not listed.
Each entry below carries its reported T/C.

- Molecule: "C/C=C1\\C[C@H]2C(=O)Nc3cc(O)c(OC)cc3C(=O)N2C1"
  T/C: "96 % of control"
- Molecule: "C/C([O-])=c1\\c(C)nn2ccc[n+]12"
  T/C: "100 % of control"
- Molecule: "CCN(CC)CCOc1ccc(C(C)=O)cc1"
  T/C: "99 % of control"
- Molecule: "CCCCC(CC)CN1CN2CN(CC(CC)CCCC)CC2(C)C1 (stereo not given)"
  T/C: "105 % of control"

# evaluate next
Report measured T/C; entry is CCN(CC)c1nc(N(CC)CC)c2[nH]cnc2n1
100 % of control

====

- System: P388 leukemia ip, CD2F1 mice, survival T/C
- Measurement Notes: NCI In Vivo Anticancer Drug Screen. Data for tumor model P388 Leukemia (intraperitoneal) in CD2F1 (CDF1) mice
- Applied Conditions: endpoint: median survival time; dose: 240.0 mg/kg/injection; schedule: Q01DX005 (ip); vehicle: saline with Tween-80; higher = longer survival
Inconclusive results and toxic doses are left out.
Property: T/C; scope: individual compounds

As a guide, the following entries are already answered.
- Compound: "CCCCN1C(=O)C(=O)N(c2ccccc2)C1=O"
  Reading: "94 % of control"
- Compound: "[N-]=[N+]=Nc1cc(-c2ccccc2)nc2cc3c(cc12)OCO3"
  Reading: "108 % of control"
- Compound: "O/N=C(/Cc1nc2cc(Cl)c(Cl)cc2nc1C/C(=N/O)c1cccnc1)c1cccnc1"
  Reading: "107 % of control"
- Compound: "CN(CCOC(N)=O)CCOC(N)=O"
  Reading: "95 % of control"
- Compound: "Cc1onc(-c2c(Cl)cccc2Cl)c1C(=O)Oc1ccc(-c2ccc(OC(=O)c3c(-c4c(Cl)cccc4Cl)noc3C)cc2)cc1"
  Reading: "89 % of control"
- Compound: "CC12OC(=O)C(C(N)=O)=C1C=C(c1ccccc1)CC2c1ccccc1 (stereo not drawn)"
  Reading: "89 % of control"
- Compound: "CCOC(=O)c1csc(Br)n1"
  Reading: "100 % of control"
- Compound: "Nc1ncnc2c1c(-c1ccccc1)cn2-c1ccc(Br)cc1"
  Reading: "96 % of control"

Next compound, T/C to be filled in.
Tell me measured T/C for CCC(/C=C/c1ccccc1)=N\NC(=O)c1ccc(Cl)cc1 please.
105 % of control

====

- System: P388 leukemia ip, CD2F1 mice, survival T/C
- Measurement Notes: NCI In Vivo Anticancer Drug Screen. Data for tumor model P388 Leukemia (intraperitoneal) in CD2F1 (CDF1) mice
- Applied Conditions: endpoint: median survival time; dose: 200.0 mg/kg/injection; schedule: Q01DX009 (ip); vehicle: saline; higher = longer survival
Inconclusive results and toxic doses are left out.
Measured Attribute: T/C

- Compound: "CC/C(=N\\NS(=O)(=O)c1ccc(C)cc1)c1cccc(C#N)c1"
  Reading: "99 % of control"
- Compound: "O=C(O)C1CCCN1 (centres undefined)"
  Reading: "100 % of control"
- Compound: "CC(Nc1cccc([N+](=O)[O-])c1)S(=O)(=O)O (centres undefined)"
  Reading: "97 % of control"

Look up and report measured T/C for this entry: [CH3][Sb]([CH3])([CH3])([CH3])[I]
95 % of control

====

- Tested on: P388 leukemia ip, CD2F1 mice, survival T/C
- Measurement Notes: NCI In Vivo Anticancer Drug Screen. Data for tumor model P388 Leukemia (intraperitoneal) in CD2F1 (CDF1) mice
- Applied Conditions: endpoint: median survival time; dose: 400.0 mg/kg/injection; schedule: Q01DX001 (ip); vehicle: saline with Tween-80; higher = longer survival
Inconclusive results and toxic doses are left out.
Recorded T/C, one value per entry.

// below: answered compounds
- Compound: "CCOC(=O)/C(C#N)=C/C=C1/C=CC=CN1N=C(SC)SC"
  Reading: "87 % of control"
- Compound: "COc1c(C)c(O)c2c(c1O)/C(=C/N=NC(N)=S)C(Cl)=N2"
  Reading: "96 % of control"
- Compound: "CC(=O)CC(=O)c1ccc(Br)cc1.CC(=O)CC(=O)c1ccc(Br)cc1.[Ni]"
  Reading: "90 % of control"

Item Cc1cccc(OCC(O)CN2CC2)c1 (stereo not given) : provide T/C
103 % of control

Specify T/C for CC1OC(=S)N(c2cccc3ccccc23)C1=O (stereo not given) and stop.
94 % of control

====

- System: P388 leukemia ip, CD2F1 mice, survival T/C
- Measurement Notes: NCI In Vivo Anticancer Drug Screen. Data for tumor model P388 Leukemia (intraperitoneal) in CD2F1 (CDF1) mice
- Applied Conditions: endpoint: median survival time; dose: 240.0 mg/kg/injection; schedule: Q01DX005 (ip); vehicle: Klucel (hydroxypropylcellulose) (HPC); higher = longer survival
Toxic doses and inconclusive results are not listed.
Item-by-item account of T/C

Take a look at these entries with their results.
- Molecule: "CC(C)CCCC(C)C1CCC2C3CCC4C5Oc6ccccc6N=C5CCC4(C)C3CCC12C (configuration not stated)"
  Reading: "93 % of control"
- Molecule: "Cc1ccc(N=CNN(C)S(=O)(=O)c2ccc(C)cc2)cc1"
  Reading: "90 % of control"
- Molecule: "O=C(Nc1cccc2nsnc12)c1ccc(C(=O)Nc2cccc3nsnc23)cc1"
  Reading: "98 % of control"

Supply recorded T/C for CC(=O)[C-](I)C(C)=O.CC(=O)[C-](I)C(C)=O.CC(=O)[C-](I)C(C)=O.[Ru+3] here.
115 % of control

Specify reported T/C for the molecule shown: O=c1[nH]c2c([N+](=O)[O-])cc(Cl)cc2nc1/C=C(\O)c1cccc2ccccc12
105 % of control

Give the measured T/C for O=C(NC1C=Nc2ccc(Cl)cc2NC1=O)c1ccc2ccccc2c1 (configuration not stated)
92 % of control

Please report the measured T/C for COc1ccc(C2OC3=Nc4ccccc4NC3C2=O)cc1OC (configuration not stated)
100 % of control

Quick one: give measured T/C for O=C(O)C1C2CC3CC2C(C3)C1C(=O)O (configuration not stated)
99 % of control

Provide measured T/C value, entry: Cc1ccc(O)c(CN2CCN(Cc3cc(C)ccc3O)CC2)c1
88 % of control

Name the recorded T/C of the item Cc1ccc(S(=O)(=O)C23N=NC(C)(C)C2C2CCC3C2)cc1 (configuration not stated) in your answer.
102 % of control

Identify measured T/C corresponding to COc1c2occc2c(OC)c2c(C)c(C(=O)OCCN3CCOCC3)oc12
91 % of control

Tell us which T/C value is on record for COc1ccc(N=Nc2ncc(N)nc2N)cc1
96 % of control

State its T/C for this molecule: O=C(O)c1cnc2cc3c(cc2c1Nc1ccc2c(c1)OCO2)OCO3
96 % of control

State its T/C: O=C(O)/C=C(/C(=O)O)C12CCN3CC4=CCOC5CC(=O)NC1C5C4CC32 (configuration not stated)
110 % of control

Give reported T/C value for COC(=O)C1C(c2ccccc2)C1(C#N)C#N (configuration not stated)
98 % of control

// fetch T/C given entry CCC(=O)N1C(=O)C(C)C23c4cccc([N+](=O)[O-])c4C(=O)N2CCCN13 (configuration not stated)
93 % of control

Please supply the value of reported T/C for the item CCOC1=C(C#N)C(=O)NC2OC(CO)C(O)C2O1 (configuration not stated)
106 % of control
